Test system: ACVR1
particulars: concentration: 1 μM,replicates: in singlicate; n = 1;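 also: KINOMEscan kinase panel screen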
# Lookup of reported %Inh keyed by entry
endpoint-label: %Inh (%)

| compound | reported-value |
| --- | --- |
| O=C(NCCCN1CCOC1=O)c1cnc(NCc2cc(Cl)ccc2Cl)nc1NC1CCCC1 | 14 |
| C=CC(=O)Nc1cc2c(Nc3ccc(F)c(Cl)c3)ncnc2cc1OCCCN1CCOCC1 [GW781483] | 38 |
| C[C@H]1Oc2cc(cnc2N)-c2c(nn(C)c2C#N)CN(C)C(=O)c2ccc(F)cc21 | 0 |
| CCN(CC)CCOc1ccc(Nc2ncc3cc(-c4c(Cl)cccc4Cl)c(=O)n(C)c3n2)cc1 [SB-601273] | 100 |
| Cc1ccc2c(-c3ccncc3)c(-c3ccc(F)cc3)nn2c1.Cl [GW461484] | 16 |
| CN(C)CC(O)COc1ccc(Nc2nccc(-c3cnn4nc(N5CCOCC5)ccc34)n2)cc1 (stereo not shown) [GW767488] | 72 |
| CC(C)Nc1cc(-c2ccc3c(N)n[nH]c3c2)nc(N)n1 [GSK2221681] | 0 |
| CCn1c(-c2nonc2N)nc2c(C#CC(C)(C)O)nc(OCCN)cc21.Cl.Cl [GSK902056] | 4 |
| Cc1ccc(-n2nc(C(C)(C)C)cc2NC(=O)Nc2ccc(OCCN3CCOCC3)c3ccccc23)cc1 [GW839464] | 18 |
| C[C@@H](Oc1cc(-c2cnn(C3CCNCC3)c2)cnc1N)c1c(Cl)ccc(F)c1Cl | 62 |

====

Tested on: CLK1
particulars: concentration: 1 μM,replicates: in singlicate; n = 1
Listing of entries alongside the reported %Inh.
endpoint-label: %Inh (%)

| compound | target-desc | endpoint-label | reported-value |
| --- | --- | --- | --- |
| Cc1cc2cn[nH]c2cc1-c1cccc2c(N)c(C(N)=O)nnc12 | CLK1 | %Inh | 22 |
| Cc1ccc2c(-c3ccncc3)c(-c3ccc(F)cc3)nn2c1.Cl | CLK1 | %Inh | 10 |
| CCN(CC)CCOc1ccc(Nc2ncc3cc(-c4c(Cl)cccc4Cl)c(=O)n(C)c3n2)cc1 | CLK1 | %Inh | 0 |
| CCN(CC)CCCCNc1ncc2cc(-c3c(Cl)cccc3Cl)c(NC(=O)NC(C)(C)C)nc2n1 | CLK1 | %Inh | 0 |
| CC(C)N1C(=O)Cc2cc(Nc3ncc(C(F)(F)F)c(NCc4cccc(S(C)(=O)=O)c4)n3)ccc21 | CLK1 | %Inh | 51 |
| C[C@@H]1CCN(C(=O)CC#N)C[C@@H]1N(C)c1ncnc2[nH]ccc12 | CLK1 | %Inh | 9 |
| CN(C)CCOc1ccc(-c2cc(-c3c[nH]nc3-c3ccccn3)ccn2)cc1 | CLK1 | %Inh | 70 |
| C=CC(=O)Nc1cc2c(Nc3ccc(F)c(Cl)c3)ncnc2cc1OCCCN1CCOCC1 | CLK1 | %Inh | 99.7 |
| CN(C)CC(O)COc1ccc(Nc2nccc(-c3cnn4nc(N5CCOCC5)ccc34)n2)cc1 (stereo not drawn) | CLK1 | %Inh | 94.9 |

====

Tested on: ACVR1B
particulars: concentration: 1 μM,replicates: in singlicate; n = 1

| molecule | readout-units | %Inh |
| --- | --- | --- |
| Cc1cc(C(=O)Nc2ccc(Oc3ccc4nc(NC(=O)C5CC5)cn4n3)cc2)nn1-c1ccccc1 | % | 0 |
| Cl.Cl.NC[C@H](Cc1ccc(C(F)(F)F)cc1)NC(=O)c1cc(Br)c(-c2ccnc3[nH]ccc23)s1 | % | 0 |
| Cc1ccc(-n2nc(C(C)(C)C)cc2NC(=O)Nc2ccc(OCCN3CCOCC3)c3ccccc23)cc1 | % | 0 |
| Cl.Oc1cc(-c2nc(-c3ccccc3)[nH]c2-c2ccncc2)ccc1Cl | % | 72 |
| COc1ccc(C[C@@H](CN)NC(=O)c2cc(Br)c(-c3ccnc4[nH]ccc34)s2)cc1.Cl.Cl | % | 0 |
| CNC(=O)c1ccccc1Sc1ccc2c(/C=C/c3ccccn3)n[nH]c2c1 | % | 21 |
| C[C@H]1Oc2cc(cnc2N)-c2c(nn(C)c2C#N)CN(C)C(=O)c2ccc(F)cc21 | % | 8 |
| Cl.Cl.NC[C@H](CC1CCCCC1)NC(=O)c1cc(Br)c(-c2ccnc3[nH]ccc23)s1 | % | 0 |
| O=C(NCCCN1CCOC1=O)c1cnc(NCc2cc(Cl)ccc2Cl)nc1NC1CCCC1 | % | 0 |
| Cl.Cl.Nc1nc(-c2ccc3c(N)n[nH]c3c2)cc(N2CCCC(NC(=O)c3ccccc3)C2)n1 (stereo not drawn) | % | 0 |
| C[C@@H](Oc1cc(-c2cnn(C3CCNCC3)c2)cnc1N)c1c(Cl)ccc(F)c1Cl | % | 60 |
| CN(C)CC(O)COc1ccc(Nc2nccc(-c3cnn4nc(N5CCOCC5)ccc34)n2)cc1 (stereo not drawn) | % | 37 |
